# TESTED_TARGET: Rap guanine nucleotide exchange factor 4 (Homo sapiens)
# ASSAY_METHOD_TEXT: Confirmatory qHTS for antagonist of cAMP-regulated guanine nucleotide exchange factor 4 (EPAC2) (AID 1645885); further: nearly all actives have a fitted effect of over 25% in size
# CONDITIONS_USED: EPAC2 Rap1B-BODIPY-GDP exchange fluorescence, biochemical; series mostly up to 12.7 µM
Inconclusive results are not listed. The source made the active and inactive calls. The call rests on the fitted dose curve; in most records, active means well fitted inhibition curve with a large enough effect; inconclusive means small, poorly fitted or top-dose-only effect; inactive means no such curve, though single readings can be large or run the other way.
Pick one and only one: active, inactive

The following molecules have reported results that may help.
molecule="O=C(O)c1ccccc1NC(c1ccccc1)c1ccc(Cl)cc1 (stereo unspecified)" class=inactive
molecule="C/C=C/COC(=O)c1[nH]c2c(c1C)C(=O)CC(c1ccco1)C2 (stereo unspecified)" class=inactive
molecule=CN(C)c1ccc(/C=C/c2c3c(nc4ccccc24)CCCC3)cc1 class=inactive

Exercise: Which result was noted for this molecule in the test: Cc1ccc(S(=O)(=O)Nc2ccc3cc([N+](=O)[O-])ccc3c2[N+](=O)[O-])cc1
Solution: inactive

Exercise: What is the recorded call for this molecule in the test? N#C/C(=N\Nc1cccc(C(F)(F)F)c1)C(=O)c1ccsc1
Solution: inactive

Exercise: Fill in: this test's call for CCc1ccc(OCC2c3cc(OC)c(OC)cc3CCN2C(C)=O)cc1 (stereo unspecified) is ___
Solution: active

###

# ASSAY_METHOD_TEXT: Cell Viability - Hek293 (AID 427);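 further: cells exposed to compound for 40 hours at 37 °C before reading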
# CONDITIONS_USED: qHTS
Inconclusive results are not listed. Active and inactive are the calls of the source.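 How the source made its calls: active means compounds whose dose-response curve shows a full or clear partial loss of cell viability, called from curve shape rather than a numeric limit; inconclusive means weak partial curves or an effect only at the top dose; inactive means no dose-dependent loss of viability.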
Output constraint: value belongs to Yes (active), No (inactive)

Known results for compounds:
compound=O=C1CCc2ccccc2O1 class=No
compound=Cc1c(N=C=O)cccc1N=C=O class=No
compound="CC12CCC(CC1=O)C2(C)C (stereo unspecified)" class=No
compound=ClCCCl class=No
compound="S=C1NC=NC2N=CNC12 (stereo unspecified)" class=Yes
compound=C=CCc1ccc(OC)c(OC)c1 class=No

Exercise: I would be grateful if you could indicate the recorded call for CN(C)C=O .
Solution: No

Exercise: Hi, sorry to bother you, what did the test record for Clc1cc(Cl)c(Cl)c(Cl)c1Cl ?
Solution: No

Exercise: How was O=S(=O)(O)c1ccccc1 classified in this test?
Solution: No

Exercise: Recorded test call requested for O=[N+]([O-])c1cccc(Cl)c1Cl
Solution: No

Exercise: Tell me the recorded outcome of this test for C=Cc1ccccc1Cl .
Solution: No

Exercise: Please indicate how the test categorized O=NO .
Solution: No

Exercise: What was the test verdict on CC1(C)CC(N=C=O)CC(C)(CN=C=O)C1 (stereo unspecified) ?
Solution: No

Exercise: Could you kindly confirm the outcome this assay logged for CCO[Si](CCCN)(OCC)OCC ?
Solution: No

Exercise: Dear all, I need the recorded test outcome for COc1c2ccoc2cc2oc(=O)ccc12 , thank you.
Solution: No

Exercise: So what was the verdict on CCCCOCCO in this test?
Solution: No

Exercise: Write down the call the test reported for this compound. Item: O=C(O)c1ccccc1C(c1ccc(O)cc1)c1ccc(O)cc1
Solution: No

Exercise: Record request — test call for COc1cc(/C=C/c2ccccc2)oc(=O)c1
Solution: No

Exercise: Per the assay record, what outcome was assigned to CCO ?
Solution: No

Exercise: Please share the test call associated with C[C@H](CCC(=O)O)[C@H]1CC[C@H]2[C@@H]3CC[C@@H]4C[C@H](O)CC[C@]4(C)[C@H]3CC[C@]12C .
Solution: No

Exercise: Hi team, can someone confirm the assay call for NC1=NC(S)C2N=CN=C2N1 (stereo unspecified) ?
Solution: Yes

Exercise: Tell me the recorded outcome of this test for COCC(=O)O .
Solution: No

Exercise: Hello, I am checking results. What call was entered for C=CC(=C)CCC=C(C)C ?
Solution: No

Exercise: Test call, this compound: C=C(C)C1CC=C(C)C(O)C1 (stereo unspecified)
Solution: No

Exercise: How was CCCCCCCCCCCCCC(=O)O classified in this test?
Solution: No

Exercise: Assay result, entry O=C(/C=C/c1ccc(O)c(O)c1)O[C@@H](C(=O)O)[C@@H](OC(=O)/C=C/c1ccc(O)c(O)c1)C(=O)O — outcome?
Solution: No
